- SYSTEM: KCNT1 (KNa1.1, Slack) (Homo sapiens (Human))
- Sequence (Q5JUK3 whole entry): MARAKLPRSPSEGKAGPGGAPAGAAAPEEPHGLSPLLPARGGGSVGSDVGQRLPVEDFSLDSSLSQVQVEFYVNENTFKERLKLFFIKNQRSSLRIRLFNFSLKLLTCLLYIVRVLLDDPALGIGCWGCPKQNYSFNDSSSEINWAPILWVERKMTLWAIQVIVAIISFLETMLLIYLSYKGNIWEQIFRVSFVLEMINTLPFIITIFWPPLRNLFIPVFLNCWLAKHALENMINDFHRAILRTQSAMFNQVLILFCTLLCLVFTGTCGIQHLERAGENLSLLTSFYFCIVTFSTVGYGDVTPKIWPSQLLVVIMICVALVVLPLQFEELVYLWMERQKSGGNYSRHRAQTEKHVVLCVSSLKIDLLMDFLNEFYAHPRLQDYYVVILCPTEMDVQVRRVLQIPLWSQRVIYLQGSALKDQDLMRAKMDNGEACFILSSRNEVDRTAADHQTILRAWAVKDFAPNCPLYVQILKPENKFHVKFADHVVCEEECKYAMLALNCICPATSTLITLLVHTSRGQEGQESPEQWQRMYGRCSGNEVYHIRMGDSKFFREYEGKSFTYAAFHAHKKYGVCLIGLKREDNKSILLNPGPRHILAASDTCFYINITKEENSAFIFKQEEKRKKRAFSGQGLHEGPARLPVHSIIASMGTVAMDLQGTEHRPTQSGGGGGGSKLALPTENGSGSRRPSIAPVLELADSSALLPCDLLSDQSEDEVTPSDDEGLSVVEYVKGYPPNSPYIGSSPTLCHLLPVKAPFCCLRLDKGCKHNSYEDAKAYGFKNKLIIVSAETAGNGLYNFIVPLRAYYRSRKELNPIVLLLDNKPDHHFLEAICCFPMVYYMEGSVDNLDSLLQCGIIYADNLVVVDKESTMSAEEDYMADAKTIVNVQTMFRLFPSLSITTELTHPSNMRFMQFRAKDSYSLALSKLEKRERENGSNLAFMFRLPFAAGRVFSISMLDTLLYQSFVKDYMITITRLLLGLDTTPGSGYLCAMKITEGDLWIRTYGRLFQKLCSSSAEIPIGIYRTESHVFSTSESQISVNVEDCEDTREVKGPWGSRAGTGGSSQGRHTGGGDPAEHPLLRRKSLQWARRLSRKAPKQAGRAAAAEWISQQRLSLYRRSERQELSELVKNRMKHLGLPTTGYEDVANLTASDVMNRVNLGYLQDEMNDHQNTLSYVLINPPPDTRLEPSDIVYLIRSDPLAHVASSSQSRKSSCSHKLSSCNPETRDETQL
- PROCEDURE_TEXT: KCNT1-WT-Basal - Patch Clamp Assay
- EXPERIMENTAL_CONTEXT: tetracycline inducible HEK-TREX cell line; SyncroPatch 384PE automated patch clamp; step to 0 mV; room temperature
pIC50: −log10 of the molar value.
Please provide measured pIC50 for the entries that follow.

get_value(item= C[C@H](NC(=O)C1CCCCC1)c1cc(-c2ccnc(C(F)(F)F)c2)no1 (single isomer, unassigned) , readout=pIC50) returns 4.70 to 6.00

Summary for this compound, C[C@H](NC(=O)c1cc(C(F)(F)F)nn1C)c1nc(-c2ccnc(C(F)(F)F)c2)ns1 (single isomer, unassigned) : pIC50 is ≥ 6.00

// pIC50 lookup, compound = CC(NC(=O)c1cc(C(F)(F)F)nn1C)c1nc(-c2ccnc(C(F)(F)F)c2)ns1 (stereo not shown) , result: ≥ 6.00

// sample C[C@@H](NC(=O)Cc1ccccc1)c1cc(-c2ccnc(C(F)(F)F)c2)no1 (single isomer, unassigned) , its pIC50 was ≤ 4.70

Per the records, this compound ( C[C@@H](NC(=O)c1ccccc1)c1cc(-c2ccnc(C(F)(F)F)c2)no1 (single isomer, unassigned) ) has pIC50 equal to ≤ 4.70

Entry C[C@H](NC(=O)c1cc(C(F)(F)F)nn1C)c1nc(N2CCCCC2)ns1 , pIC50 reported as 4.70 to 6.00

Form: compound = C[C@@H](NC(=O)c1ccccc1)c1nc(-c2ccnc(C3CC3)c2)ns1 ; pIC50 = ≥ 6.00

// provenance: patent US20230285377A1
